src = patent US7868204B2

Some compounds, each annotated with its measured EC50.
# Test system: acetylated histone H-4 in T24 human bladder cancer cells
# ASSAY_SUMMARY: Histone H4 acetylation in whole cells by immunoblots
# Type: cell-based
# MEASUREMENT_CONTEXT: T-24, Table 5b, 16 h, read-out: H4Ac (T24) EC50
# Protocol: T24 human bladder cancer cells growing in culture were incubated with HDAC inhibitors for 16 h. […] of total histone protein was loaded onto SDS/PAGE and transferred to nitrocellulose membranes. Membranes were probed with polyclonal antibodies specific for acetylated histone H-4 (Upstate Biotech Inc.), followed by horse radish peroxidase conjugated secondary antibodies (Sigma). […] Acetylated H-4 signal was quantified by densitometry.
METRIC_NAME: EC50

> print(dat)
                                    compound  test.value
 1  COCCNc1nc(NCCc2ccccc2)nc(NCc2ccc(C(=O)Nc3ccccc3N)cc2)n1 [Cpd 474]     1000 nM
 2  COc1nc(NCc2ccc(C(=O)Nc3ccccc3N)cc2)nc(NC2Cc3ccccc3C2)n1 [Cpd 214]     1000 nM
 3  Nc1nc(NC2Cc3ccccc3C2)nc(OCc2ccc(C(=O)Nc3ccccc3N)cc2)n1 [Cpd 207]     2000 nM
 4  Nc1nc(NCCCc2ccccc2)nc(NCc2ccc(C(=O)Nc3ccccc3N)cc2)n1 [Cpd 470]     3000 nM
 5  COc1nc(NCc2ccc(C(=O)Nc3ccccc3N)cc2)nc(OC)n1 [Cpd 212]     1000 nM
 6  COc1ccc(CCNc2nc(NCc3ccc(C(=O)Nc4ccccc4N)cc3)nc(NC3CC3)n2)cc1 [Cpd 476]     2000 nM
 7  CN(Cc1ccc(C(=O)Nc2ccccc2N)cc1)c1nc(N)nc(NC2Cc3ccccc3C2)n1 [Cpd 216]     2000 nM
 8  Nc1ccccc1NC(=O)c1ccc(CNc2nc(NCCc3ccccc3)nc(NC3CC3)n2)cc1 [Cpd 471]     3000 nM
 9  Nc1ccccc1NC(=O)c1ccc(CNc2ncnc(NCCc3ccccc3)n2)cc1 [Cpd 210]     1000 nM
10  Nc1nc(Nc2ccc(C(=O)Nc3ccccc3N)cc2)nc(NC2Cc3ccccc3C2)n1 [Cpd 204]     5000 nM
11  Nc1ccccc1NC(=O)c1ccc(CNc2nc(NCC3CC3)nc(NC3Cc4ccccc4C3)n2)cc1 [Cpd 472]     1000 nM
